molecular target: E-selectin (Homo sapiens); experiment: Binding affinity to E-selectin relative to (2S,4S,5R,6R)-5-acetamido-2-((2R,3S,4S,5R,6R)-3,5-dihydroxy-2-(hydroxymethyl)-6-((1R,2R)-2-((2S,3S,4R,5S,6S)-3,4,5-trihydroxy-6-methyl-tetrahydro-2H-pyran-2-yloxy)cyclohexyloxy)-tetrahydro-2H-pyran-4-yloxy)-4-hydroxy-6-((1R,2R)-1,2,3-trihydroxypropyl)-tetrahydro-2H-pyran-2-carboxylic acid
This listing pairs molecules with measured Activity.
Please give only the number in your answer, with no unit.

Given smiles	Study system	Activity
C[C@H](O[C@H]1[C@@H](O)[C@@H](CO)O[C@@H](O[C@@H]2CCCC[C@H]2O[C@@H]2O[C@@H](C)[C@@H](O)[C@@H](O)[C@@H]2O)[C@@H]1O)C(=O)O	E-selectin (Homo sapiens)	2.4
C[C@@H]1O[C@@H](O[C@@H]2CCCC[C@H]2O[C@@H]2O[C@H](CO)[C@H](O)[C@H](O[C@@H](Cc3ccccc3)C(=O)O)[C@H]2O)[C@@H](O)[C@H](O)[C@@H]1O	E-selectin (Homo sapiens)	0.6
C[C@@H]1O[C@@H](O[C@@H]2CCCC[C@H]2O[C@@H]2O[C@H](CO)[C@H](O)[C@H](O[C@@H](CC34CC5CC(CC(C5)C3)C4)C(=O)O)[C@H]2O)[C@@H](O)[C@H](O)[C@@H]1O	E-selectin (Homo sapiens)	0.32

Prompt: Reported Activity for E-selectin (Homo sapiens), given C[C@@H]1O[C@@H](O[C@@H]2CCCC[C@H]2O[C@@H]2O[C@H](CO)[C@H](O)[C@H](O[C@@H](CC3CCCCC3)C(=O)O)[C@H]2O)[C@@H](O)[C@H](O)[C@@H]1O ?
Response: 0.15
